system.under.test: CD28 (Homo sapiens, UniProt P10747)
assay.summary: Jurkat/IL2 + CHO/OKT3 +/- PD-L1 reporter assay: PD-L1-dependent CD28 costimulation
Format: cell-based
Parameters: host or cells: Jurkat cells expressing an IL-2-luciferase reporter
applied.conditions: Table E21; Jurkat/IL2 + CHO/OKT3/PD-L1; 5.0 nM
observable: Fold Increase over WT CD80-IgV-Fe (fold)

- E35D/D46V/M47V/N48K/V68M (protein) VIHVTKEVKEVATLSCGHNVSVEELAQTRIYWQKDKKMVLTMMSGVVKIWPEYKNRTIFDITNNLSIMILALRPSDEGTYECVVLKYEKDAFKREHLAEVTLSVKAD: 6.1
- E35D/M47V/N48K/K89N (protein) VIHVTKEVKEVATLSCGHNVSVEELAQTRIYWQKDKKMVLTMMSGDVKIWPEYKNRTIFDITNNLSIVILALRPSDEGTYECVVLKYENDAFKREHLAEVTLSVKAD: 7.1
- M47V/N48K/K89N (protein) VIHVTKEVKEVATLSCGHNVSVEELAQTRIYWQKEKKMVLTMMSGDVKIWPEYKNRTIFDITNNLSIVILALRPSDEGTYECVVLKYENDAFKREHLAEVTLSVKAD: 4.1
- D46V/V68M (protein) VIHVTKEVKEVATLSCGHNVSVEELAQTRIYWQKEKKMVLTMMSGVMNIWPEYKNRTIFDITNNLSIMILALRPSDEGTYECVVLKYEKDAFKREHLAEVTLSVKAD: 2.5
